# protocol summary: self-splicing fitness, log relative to wild type (ln ratio); higher = more splicing; Tetrahymena group I intron in knt gene, E. coli kanamycin selection, DiMSum; sequences stand for … in CUCUCU…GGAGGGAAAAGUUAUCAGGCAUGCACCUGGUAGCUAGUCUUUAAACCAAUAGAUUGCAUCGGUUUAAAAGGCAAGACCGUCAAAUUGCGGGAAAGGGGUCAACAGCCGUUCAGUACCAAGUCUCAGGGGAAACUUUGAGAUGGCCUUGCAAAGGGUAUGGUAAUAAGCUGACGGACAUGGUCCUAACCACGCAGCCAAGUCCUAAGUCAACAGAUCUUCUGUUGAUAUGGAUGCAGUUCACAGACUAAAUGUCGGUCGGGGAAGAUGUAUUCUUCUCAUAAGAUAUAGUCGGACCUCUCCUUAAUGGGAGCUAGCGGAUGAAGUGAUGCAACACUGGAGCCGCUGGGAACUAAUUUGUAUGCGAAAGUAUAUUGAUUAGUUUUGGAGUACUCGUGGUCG;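 note: selection with 25 µg/mL kanamycin versus none on LB agar overnight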
# settings: 37 °C
measurement type: self-splicing fitness (ln)
// no unit, no text: just the number

Known self-splicing fitness (ln) results, listed for orientation:
{"chain": "CGAUAGCAAUAUUACGAACC", "measurement type": "self-splicing fitness (ln)", "recorded result": -0.913}
{"chain": "AACAAGCAAUAUUACGAUUC", "measurement type": "self-splicing fitness (ln)", "recorded result": -0.551}

Query `AUCUAGCAAUAUUACGUCAG` yields self-splicing fitness (ln) of -2.34

Query `UUAGAGCAAUAUUACGCAUG` yields self-splicing fitness (ln) of -0.298

Query `AUUAAGCAAUAUUACGAUAA` yields self-splicing fitness (ln) of -0.391

Query `CUUUAGCAAUAUUACGGACG` yields self-splicing fitness (ln) of -0.273

Query `UAGUAGCAAUAUUACGAGCU` yields self-splicing fitness (ln) of -0.383
